B1: CPEB3 Ribozyme (parent)
chain: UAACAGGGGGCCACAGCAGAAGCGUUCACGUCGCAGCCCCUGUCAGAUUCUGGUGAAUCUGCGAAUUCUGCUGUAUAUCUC

Variants of: B1
Test: self-cleavage, relative activity (ratio to wild type); higher = more cleavage; in vitro, sequencing
Response field class: string, computed from recorded self-cleavage by ranges A = under 0.2, B = from 0.2 up to 0.5, C = 0.5 and over

# classify by self-cleavage band: A13G A65C C

Please indicate the class for A35U C40U based on its self-cleavage. B

Field: class (self-cleavage) — entry: U54C A57C B

Hello team, could you let me know which band the following variant falls into: A2C U76C C

Each variant maps to one class by self-cleavage. Which class for G6A G24U ? B

Textbook exercise: identify the category of the variant given here, U43A U51G , according to its measured value. C

Classify this variant: A2G C29A A

Kindly state the category for this variant: A20G U26A C

Looking at G8A C79A , which class would you pick? A

Kindly state the category for this variant: A18U C79U B

Lab note: which band did C39A U72C land in? B

Kindly state the category for this variant: C62A U74C B

Assign a bin to U49C C62G B

Please report the category associated with A15G C34U , nothing else. B

The entry to classify is A5G U51C ; which class holds it? C

Categorize the following entry: G33A C39U A

// return the class label for G8U C11U A

Tag the class for U26C U58G B

Which bin, given its self-cleavage, does U43A U58C occupy? C

Kindly state the category for this variant: U1A G73A C

State the band of G53U U67C B
